target: Gal(b1-4)GlcNAc6P; test: glycan array binding signal (z-score within array); higher = stronger binding; settings: glycan notation: IUPAC condensed, linker removed
The full list was thinned out, with the strongest signals kept by preference.
# cutoff 0.01 applies to glycan array binding signal (z-score); >= gives Satisfied, < gives Not satisfied

Before answering, review these 3 worked examples.
[[record]]
binder = "Sp8391B-bot-388-20-388 (Bacteroides ovatus) (protein) GCQNNDENEQHYDNKLFISASNFTKEILFKAGDTNVETGLSVAIAKPEEHDIKVTMSPAPELLSTYKLAYYDETAVLLSEEHYSMPETSTTIKSGSIVSPELPIEFINTGELDIKTTYVLPVTIKSVEGIGVLQSAKTYYYVFRGASLINVVCNISRNRAYPDFKNDSKFNNLTENTMEILFKANSFPNTLNTLMGIESNYLLRIGDATIPNNQLQVATSVNNCTSADLQLESGKWYHVAVAFNKGNVKVYINGVEKLSGSTGKSSVSLGAKHTNEEDGSRCFWVGYSYKDDRYFDGVVSEVRIWNRALTAEEIQATNHFYTIEPESEGLIAYWKFDEGSGTVAKDYSVSGYDLTIEKEPKWESVSLPQ"
class_name = "Satisfied"

[[record]]
binder = "CPA (Cicer arietinum) (protein) MAFSYLNLVLVTLTTLFFLQTTKVKSQKSVSFHITNFTISRPSITLQGTAEFLPNVLLLNDIEHPVFVVGRALYSKPITLWNNKTGKVASFVTSFTFDVQDLKKTVPGHGLVFFLAPSGSEIPFSSDGGNLGVVDGKNAFNRFVGVEFDNFVNSWDPKYSHVGINVNSLISTKTVKWNRVSGELVKVSIVYDSVSTTLTVIVTYKNGQISILSQLVDLKAVLPDTVNIGFSASTTLVSPRQLHNIHSWSFTSTFET"
class_name = "Satisfied"

[[record]]
binder = "Calsepa (Calystegia sepium), P93114 (protein) MAVPMDTISGPWGNNGGNFWSFRPVNKINQIVISYGGGGNNPIALTFSSTKADGSKDTITVGGGGPDSITGTEMVNIGTDEYLTGISGTFGIYLDNNVLRSITFTTNLKAHGPYGQKVGTPFSSANVVGNEIVGFLGRSGYYVDAIGTYNRHK"
class_name = "Not satisfied"


Query: Is reported glycan array binding signal (z-score) greater than or equal to 0.01 here: ABA (Agaricus bisporus), Q00022 (protein) MTYTISIRVYQTTPKGFFRPVERTNWKYANGGTWDEVRGEYVLTMGGSGTSGSLRFVSSDTDESFVATFGVHNYKRWCDIVTNLTNEQTALVINQEYYGVPIRDQARENQLTSYNVANAKGRRFAIEYTVTEGDNLKANLIIG
Reply: Not satisfied

Query: Is reported glycan array binding signal (z-score) greater than or equal to 0.01 here: Ovorubin (Pomacea canaliculata), J7I2T6 (protein) MFVATSLLLAIATLVVRASPHNYLIMDIEPPKSVSERDILNLLSPLQVKHSFRVTGSTRLLIVIRLDAQSYEKLDEITVPGKVEVIPAVNMADTMERCGVSWPRVELTDDNVTLFESESTLTDVTKEQLKAMLIGYGEHMSGLLQAHRFEYYQAAGATPHRHFVFVNSVPDEIEVFGREGVDIWGGPGEFVVKPQYVTRI
Reply: Not satisfied

Cited source for all entries: the supplement of paper PMC8728848
